# TARGET_OR_SYSTEM: human TRPV1 (Homo sapiens, UniProt Q8NER1)
# Sequence (Q8NER1 whole entry): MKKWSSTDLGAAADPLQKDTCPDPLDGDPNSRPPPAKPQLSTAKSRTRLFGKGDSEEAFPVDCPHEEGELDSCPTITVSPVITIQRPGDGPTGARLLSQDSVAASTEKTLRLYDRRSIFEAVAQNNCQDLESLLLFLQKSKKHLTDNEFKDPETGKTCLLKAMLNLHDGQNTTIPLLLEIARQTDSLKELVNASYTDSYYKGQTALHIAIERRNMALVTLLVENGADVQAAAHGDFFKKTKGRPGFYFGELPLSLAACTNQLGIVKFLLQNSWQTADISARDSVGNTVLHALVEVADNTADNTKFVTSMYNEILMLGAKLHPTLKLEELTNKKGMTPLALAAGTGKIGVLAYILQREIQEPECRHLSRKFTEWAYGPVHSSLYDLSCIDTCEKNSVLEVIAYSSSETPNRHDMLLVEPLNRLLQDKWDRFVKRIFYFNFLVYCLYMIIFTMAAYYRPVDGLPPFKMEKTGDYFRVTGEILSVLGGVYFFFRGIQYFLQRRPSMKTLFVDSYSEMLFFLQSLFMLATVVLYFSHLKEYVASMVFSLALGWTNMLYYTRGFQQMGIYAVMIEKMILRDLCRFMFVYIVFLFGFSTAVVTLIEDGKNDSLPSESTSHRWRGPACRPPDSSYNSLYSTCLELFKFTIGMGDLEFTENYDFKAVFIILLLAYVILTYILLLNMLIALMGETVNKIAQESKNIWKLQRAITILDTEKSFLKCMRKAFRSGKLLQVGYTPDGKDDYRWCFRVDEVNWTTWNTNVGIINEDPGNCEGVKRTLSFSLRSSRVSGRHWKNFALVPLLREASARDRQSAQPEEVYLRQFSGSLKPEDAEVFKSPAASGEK
# ASSAY_INFO: Functional assay: block of capsaicin-induced Ca2+ influx, human assay (hTRPV1/HEK293, FLIPR)
# CONDITION_INFO: hTRPV1/HEK293 cells, 150 nM capsaicin challenge, Fluo-3 fluorescence; mean; > value = solubility limit in assay medium
# Protocol: Functional assay: block of capsaicin-induced Ca^2+ influx HEK293 cells were transfected with human TRPV1 cloned in pcDNA3.1zeo(+) using the Effectene non-liposomal lipid based transfection kit (Qiagen) (hTRPV1/HEK293). hTRPV1/HEK293 cells were routinely grown as monolayers under selection in zeocin (200 μg/mL; Invitrogen) in Dulbecco's Modified Eagle Medium (DMEM, Gibco BRL) supplemented with 10% fetal bovine serum, and penicillin/streptomycin (50 units/mL) in 5% CO2 at 37° C. […]
ASSAY_METRIC: IC50 (nM)

FC(F)(F)c1ccc(Nc2ncnc3sc(Nc4ccccc4C(F)(F)F)nc23)cc1 | 91
COC(=O)C(C)(C)c1ccc(Nc2ncnc3sc(Nc4c(C)noc4C)nc23)cc1 | 100
COC[C@@H]1CCCN1c1nc(Nc2ccc(C(F)(F)F)cc2)c2nc(Nc3c(Cl)cccc3Cl)sc2n1 | 35
CCN(CC)c1nc(Nc2ccc(C(F)(F)F)cc2)c2nc(Nc3c(Cl)cccc3Cl)sc2n1 | 36

(A) Cc1cccc(C)c1Nc1nc2c(Nc3ccc(S(=O)(=O)N4CCN(C)CC4)cc3)ncnc2s1
(B) CSc1nc(Nc2ccc(S(=O)(=O)N(C)C)cc2)c2nc(Nc3c(Cl)cccc3Cl)sc2n1
(C) Cc1cccc(C)c1Nc1nc2c(Nc3ccc(SC(F)(F)F)cc3)ncnc2s1
Hey, quick one: sort these by IC50, largest value first please. Reply with the labels, ordered as the question asks.
B, C, A
